Tested on: RS4; 11 leukaemia cell line
Assay: In vitro cytotoxicity, Microculture Tetrazolium Assay (MTT)
Type: cell-based
Details: Homo sapiens, 11 cells exposed for 48 hours
Protocol: The cytotoxicity studies were carried out on the RS4; 11 leukaemia cell line and on H146 small Cell Lung Carcinoma cell line. The cells are distributed onto microplates and exposed to the test compounds for 48 hours. The cell viability is then quantified by a colorimetric assay, the Microculture Tetrazolium Assay (Cancer Res., 1987, 47, 939-942).
Recorded measurements of IC50, one per entry
The reply should contain only the number, in nM.

molecule | IC50 [nM]
C[C@@H]1Cc2ccccc2CN1C(=O)c1cc2c(cc1-c1cc(C(=O)N(C)c3ccc(O)cc3)c3n1CCCC3)CN(C(=O)CSc1ccccc1)C2 [Example 171] | 63
Cc1c(C(=O)N(C)c2ccc(O)cc2)cc(-c2cc3c(cc2C(=O)N2Cc4ccccc4C[C@H]2CN2CCOCC2)CN(C(=O)CC24CC5CC(CC(C5)C2)C4)CC3)n1C [Example 798] | 76

Now for the molecule whose IC50 we want.
Field request: IC50 | item: C[C@@H]1Cc2ccccc2CN1C(=O)c1cc2c(cc1-c1cc(C(=O)N(c3ccccc3)c3ccc(O)cc3)c3n1CCCC3)CN(C(=O)Oc1ccccc1)C2 [Example 133]
8.2

* * *

Recorded measurements of IC50, one per entry
Target: Bcl-2 protein (histag-Bcl-2, UniProtKB P10415) (Homo sapiens (Human), UniProt P10415)
Sequence (P10415 whole entry): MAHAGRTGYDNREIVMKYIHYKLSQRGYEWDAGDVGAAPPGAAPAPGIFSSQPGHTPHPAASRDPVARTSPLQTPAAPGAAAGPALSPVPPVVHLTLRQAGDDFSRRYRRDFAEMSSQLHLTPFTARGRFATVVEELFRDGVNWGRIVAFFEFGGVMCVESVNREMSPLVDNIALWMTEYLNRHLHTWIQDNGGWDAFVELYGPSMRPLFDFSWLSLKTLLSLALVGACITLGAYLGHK
Test: Inhibition of Bcl-2 by the fluorescence polarisation technique
Format: binding
Details: fluorescence polarisation test; incubation for 2 hours; read-out: IC50 (nM) Bcl-2 FP
The reply should contain only the number, in nM.

For orientation, consider the following solved cases.
compound | measured on | IC50, nM
CN(C(=O)c1cc(-c2cc3c(cc2C(=O)N2Cc4ccccc4C[C@H]2CN2CCOCC2)CN(C(=O)Nc2ccccc2)CC3)n2c1CCCC2)c1ccc(O)cc1 [Example 77] | Bcl-2 protein (histag-Bcl-2, UniProtKB P10415) (Homo sapiens (Human), UniProt P10415) | 4
C[C@@H]1Cc2ccccc2CN1C(=O)c1cc2c(cc1-c1cc(C(=O)N(C)c3ccc(O)cc3)c3n1CCCC3)CCN(C(=O)Oc1ccccc1)C2 [Example 46] | Bcl-2 protein (histag-Bcl-2, UniProtKB P10415) (Homo sapiens (Human), UniProt P10415) | 3.7
Cc1c(C(=O)N(C)c2ccc(O)cc2)cc(-c2cc3c(cc2C(=O)N2Cc4ccccc4C[C@H]2CN2CCOCC2)CN(C(=O)Oc2ccc4ccccc4c2)CC3)n1C [Example 574] | Bcl-2 protein (histag-Bcl-2, UniProtKB P10415) (Homo sapiens (Human), UniProt P10415) | 8.8
Cc1c(C(=O)N(C)c2ccccc2)cc(-c2cc3c(cc2C(=O)N2Cc4ccccc4C[C@H]2C)CN(C(=O)Oc2ccc(C#N)cc2)CC3)n1C [Example 786] | Bcl-2 protein (histag-Bcl-2, UniProtKB P10415) (Homo sapiens (Human), UniProt P10415) | 8.4
Cc1c(C(=O)N(C)c2ccc(O)cc2)cc(-c2cc3c(cc2C(=O)N2Cc4ccccc4C[C@H]2CN2CCOCC2)CN(C(=O)Oc2ccc4[nH]ccc4c2)CC3)n1C [Example 577] | Bcl-2 protein (histag-Bcl-2, UniProtKB P10415) (Homo sapiens (Human), UniProt P10415) | 5.9
COc1ccc(OC(=O)N2CCc3cc(-c4cc(C(=O)N(C)c5ccc(O)cc5)c5n4CCCC5)c(C(=O)N4Cc5ccccc5C[C@H]4CN4CCOCC4)cc3C2)cc1 [Example 121] | Bcl-2 protein (histag-Bcl-2, UniProtKB P10415) (Homo sapiens (Human), UniProt P10415) | 2.9
CCN1CCc2cc(-c3cc(C(=O)N(C)c4ccc(O)cc4)c4n3CCCC4)c(C(=O)N3Cc4ccccc4C[C@H]3C)cc2C1 [Example 57] | Bcl-2 protein (histag-Bcl-2, UniProtKB P10415) (Homo sapiens (Human), UniProt P10415) | 65
Cc1c(C(=O)N(C)c2ccc(O)cc2)cc(-c2cc3c(cc2C(=O)N2Cc4ccccc4C[C@H]2CN2CCOCC2)CN(C(=O)O[C@@H]2C[C@H](C)CC[C@H]2C(C)C)CC3)n1C [Example 797] | Bcl-2 protein (histag-Bcl-2, UniProtKB P10415) (Homo sapiens (Human), UniProt P10415) | 21

Field: IC50 (Bcl-2 protein (histag-Bcl-2, UniProtKB P10415) (Homo sapiens (Human), UniProt P10415)). Entry: Cc1c(C(=O)N(C)c2ccc(O)cc2)cc(-c2cc3c(cc2C(=O)N2Cc4ccccc4C[C@H]2C)CN(C(=O)Oc2ccccc2CCC(=O)N(C)C)CC3)n1C [Example 775]
2.4

Field: IC50 (Bcl-2 protein (histag-Bcl-2, UniProtKB P10415) (Homo sapiens (Human), UniProt P10415)). Entry: C[C@@H]1Cc2ccccc2CN1C(=O)c1cc2c(cc1-c1cc(C(=O)N(C)c3ccc(O)cc3)c3n1CCCC3)CN(C(=O)CCC1CCCCC1)C2 [Example 32]
47

Field: IC50 (Bcl-2 protein (histag-Bcl-2, UniProtKB P10415) (Homo sapiens (Human), UniProt P10415)). Entry: Cc1c(C(=O)N(C)c2ccccc2)cc(-c2cc3c(cc2C(=O)N2Cc4ccccc4C[C@H]2CN2CCOCC2)CN(C(=O)Oc2cnc4[nH]ccc4c2)CC3)n1C [Example 633]
6.1
